Property: IC50; scope: individual sequences
# Assayed System: DRB1*15:01 (Homo sapiens, UniProt P01903+P01911)
# Construct: EBV transformed homozygous cell lines were used as sources of MHC molecules; endogenous in cells; host or cells: EBV transformed homozygous cell lines
# Measurement Description: HLA class II peptide binding, inhibition of radiolabeled peptide binding to purified MHC
# Test Conditions: SE-, competition with radiolabeled peptide, two-day incubation, three or more independent experiments
Ends that are not written are not given here.

| Entry Sequence | Assayed System | IC50 |
| --- | --- | --- |
| VVLLVATEGRVRVNSAYQDK [Aggrecan 84–103 WT] | DRB1*15:01 (Homo sapiens, UniProt P01903+P01911) | 1010 nM |
| LQYMRADQAAGGLR [Collagen II 1236–1249 WT] | DRB1*15:01 (Homo sapiens, UniProt P01903+P01911) | 1460 nM |
| NQDFTNRINKLKNS [Fibrinogen 78–91 WT] | DRB1*15:01 (Homo sapiens, UniProt P01903+P01911) | > 30000 nM |

Moving on to another sequence below.
Exercise: Please list IC50 recorded for the sequence SAVRLRSSVPGVR [Vimentin 66–78 WT]
Key: 4.1 nM

----------
# Assayed System: HLA-DRB1*04:01 (Homo sapiens, UniProt P01903+P01911, A100K/A169T/F76Y/I96L/K127E/L162R/M171V/N62H/P40V/Q125Y/R42H/S133A/S149N/S66Y/V115G/V209L/W38E)
# Construct: EBV transformed homozygous cell lines were used as sources of MHC molecules; endogenous in cells; host or cells: EBV transformed homozygous cell lines
# Measurement Description: HLA class II peptide binding, inhibition of radiolabeled peptide binding to purified MHC
# Test Conditions: citrullinated 15-mer peptide (X = citrulline); purified HLA-DRB1*04:01; read-out: DRB1*04:01 binding capacity, Cit peptide (IC50 nM)
Square brackets hold non-standard residues; d marks the D form. Peptide text beside a SMILES is read from it. Cit = NC(=O)NCCC[C@H](N)C(=O)O
Property: IC50; scope: individual molecules
Return type: number; implicit unit nM.

| Molecule | Output Unit | IC50 |
| --- | --- | --- |
| CC[C@H](C)[C@H](NC(=O)[C@H](CCCNC(=N)N)NC(=O)[C@H](CO)NC(=O)[C@H](CCC(=O)O)NC(=O)[C@H](CCC(=O)O)NC(=O)CNC(=O)[C@H](CCC(=O)O)NC(=O)[C@H](CC(C)C)NC(=O)[C@H](CC(C)C)NC(=O)[C@H](CCCCN)NC(=O)[C@@H](N)CCCNC(N)=O)C(=O)N[C@@H](CO)C(=O)N[C@@H](CC(C)C)C(=O)N1CCC[C@H]1C(=O)N[C@@H](CC(C)C)C(=O)O [XKLLEGEESRISLPL] | nM | 1890 |

Exercise: Please list IC50 recorded for the molecule CC(C)C[C@H](NC(=O)CNC(=O)[C@@H](NC(=O)[C@H](Cc1ccccc1)NC(=O)CNC(=O)[C@H](CCCNC(N)=O)NC(=O)[C@H](Cc1c[nH]cn1)NC(=O)CN)[C@@H](C)O)C(=O)N[C@@H](CCC(N)=O)C(=O)NCC(=O)N[C@@H](CC(C)C)C(=O)N1CCC[C@H]1C(=O)NCC(=O)N1CCC[C@H]1C(=O)N1CCC[C@H]1C(=O)O [GHXGFTGLQGLPGPP] (H-GH[Cit]GFTGLQGLPGPP-OH)
Key: 2340

----------
# Assayed System: HLA-DRB1*01:01 (Homo sapiens, UniProt P01903+P01911, A100R/D57E/F55L/F60I/F76Y/I96L/L162R/M171V/P40L/Q125E/R42F/V115G/Y59C)
# Construct: EBV transformed homozygous cell lines were used as sources of MHC molecules; endogenous in cells; host or cells: EBV transformed homozygous cell lines
# Measurement Description: HLA class II peptide binding, inhibition of radiolabeled peptide binding to purified MHC
# Test Conditions: read-out: DRB1*01:01 binding capacity, WT peptide (IC50 nM)
Property: IC50; scope: individual compounds
Return type: number; implicit unit nM.

| Compound | Output Unit | IC50 |
| --- | --- | --- |
| CC[C@H](C)[C@H](NC(=O)[C@H](CCCCN)NC(=O)[C@H](CC(N)=O)NC(=O)[C@H](CCC(N)=O)NC(=O)[C@H](CCC(N)=O)NC(=O)[C@H](CCC(=O)O)NC(=O)[C@H](CC(C)C)NC(=O)[C@H](Cc1ccccc1)NC(=O)[C@H](CCCNC(=N)N)NC(=O)[C@@H](N)C(C)C)C(=O)N[C@@H](CC(C)C)C(=O)N[C@@H](CC(C)C)C(=O)N[C@@H](C)C(=O)N[C@@H](CCC(=O)O)C(=O)N[C@@H](CC(C)C)C(=O)O [Vimentin 121 WT] | nM | 5.7 |
| CC(C)C[C@H](NC(=O)[C@H](C)NC(=O)[C@H](CO)NC(=O)CN)C(=O)N[C@@H](CCCNC(=N)N)C(=O)N1CCC[C@H]1C(=O)N[C@@H](CO)C(=O)N[C@H](C(=O)N[C@@H](CO)C(=O)N[C@@H](CCCNC(=N)N)C(=O)N[C@@H](CO)C(=O)N[C@@H](CC(C)C)C(=O)N[C@@H](Cc1ccc(O)cc1)C(=O)N[C@@H](C)C(=O)N[C@@H](CO)C(=O)O)[C@@H](C)O [Vimentin 41 WT] | nM | 3.4 |

Moving on to another compound below.
Exercise: Please list IC50 recorded for the compound CC[C@H](C)[C@H](NC(=O)[C@H](Cc1ccc(O)cc1)NC(=O)[C@H](CC(N)=O)NC(=O)[C@H](C)NC(=O)[C@H](Cc1ccccc1)NC(=O)[C@H](CCCNC(=N)N)NC(=O)[C@H](CC(=O)O)NC(=O)[C@H](CC(N)=O)NC(=O)[C@H](CC(C)C)NC(=O)[C@H](CCC(=O)O)NC(=O)[C@H](CCC(N)=O)NC(=O)[C@H](CC(C)C)NC(=O)[C@@H](N)CCC(=O)O)C(=O)N[C@@H](CC(=O)O)C(=O)N[C@@H](CCCCN)C(=O)O [Vimentin 106 WT]
Key: 3070

----------
# Assayed System: HLA-DRB1*04:01 (Homo sapiens, UniProt P01903+P01911, A100K/A169T/F76Y/I96L/K127E/L162R/M171V/N62H/P40V/Q125Y/R42H/S133A/S149N/S66Y/V115G/V209L/W38E)
# Construct: EBV transformed homozygous cell lines were used as sources of MHC molecules; endogenous in cells; host or cells: EBV transformed homozygous cell lines
# Measurement Description: HLA class II peptide binding, inhibition of radiolabeled peptide binding to purified MHC
# Test Conditions: citrullinated 15-mer (X); purified MHC, inhibition of radiolabeled peptide binding; dash = IC50 >40,000 nM; read-out: DRB1*04:01 binding capacity, Cit peptide (IC50 nM)
Square brackets hold non-standard residues; d marks the D form. Peptide text beside a SMILES is read from it. Cit = NC(=O)NCCC[C@H](N)C(=O)O
Test Readout: IC50
Remember to put the unit after the number in your answer.

Exercise: Please list IC50 recorded for the compound CC(C)C[C@H](NC(=O)[C@H](CCC(=O)O)NC(=O)[C@H](CCC(N)=O)NC(=O)[C@H](CC(C)C)NC(=O)[C@H](CCC(=O)O)NC(=O)[C@@H](NC(=O)[C@H](CCCCN)NC(=O)[C@H](CCC(=O)O)NC(=O)[C@H](CC(N)=O)NC(=O)[C@@H](NC(=O)[C@H](CCCNC(N)=O)NC(=O)[C@@H](NC(=O)[C@H](CC(N)=O)NC(=O)[C@H](CCCCN)NC(=O)[C@@H](N)Cc1ccccc1)[C@@H](C)O)[C@@H](C)O)C(C)C)C(=O)O [FKNTXTNEKVELQEL] (H-FKNT[Cit]TNEKVELQEL-OH)
Key: 1140 nM

----------
# Assayed System: DRB1*10:01 (Homo sapiens, UniProt P01903+P01911, A100R/A169T/D57E/F55L/F60V/F69Y/F76Y/I96L/L162R/M171V/P40V/Q260P/Q39E/Q99R/R195Q/R42F/S149N/S66Y/T210M/V115G/V67A/W38E/Y59R/Y61H)
# Measurement Description: HLA class II peptide binding, inhibition of radiolabeled peptide binding to purified MHC
# Test Conditions: SE+, competition with radiolabeled peptide, two-day incubation, three or more independent experiments
Ends that are not written are not given here.
Property: pIC50; scope: individual sequences
Reminder that pIC50 means the negative base-10 logarithm of the concentration expressed in mol/L.

| Entry Sequence | pIC50 |
| --- | --- |
| LQYMRADQAAGGLR [Collagen II 1236–1249 WT] | 6.43 |
| NQDFTNRINKLKNS [Fibrinogen 78–91 WT] | 5.45 |
| SAVRLRSSVPGVR [Vimentin 66–78 WT] | 5.29 |

Moving on to another sequence below.
Exercise: Please list pIC50 recorded for the sequence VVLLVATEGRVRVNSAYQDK [Aggrecan 84–103 WT]
Key: 6.19
